Target: RRE subdomain IIB
Test: Fluorescence binding to fluorescein-labeled (U23) RRE subdomain IIB RNA hairpin
Conditions: RRE IIB hairpin labeled with fluorescein at U23; 100 nM RNA, pH 6.6; 95% CI and R2 in parentheses
Attribute Measured: Kd

Some solved entries appear below for comparison.
Compound Structure String: CN(C)CCOc1cc(C(=O)c2ccccc2)cc2ccccc12
Test System: RRE subdomain IIB
Attribute Measured: Kd
Measured Result: 95.1 µM
--
Compound Structure String: CN(C)CCOc1ccc2c(c1)C(=O)c1ccccc1-2
Test System: RRE subdomain IIB
Attribute Measured: Kd
Measured Result: 45.6 µM
--
Compound Structure String: CN(C)CCOc1ccc2c(c1)Cc1ccccc1-2
Test System: RRE subdomain IIB
Attribute Measured: Kd
Measured Result: 106 µM
--
Compound Structure String: CN(C)CCOc1cccc(C(=O)c2ccccc2)c1
Test System: RRE subdomain IIB
Attribute Measured: Kd
Measured Result: > 100 µM
--
Compound Structure String: CN(C)CCOc1cc2c(c3ccccc13)-c1ccccc1C2=O
Test System: RRE subdomain IIB
Attribute Measured: Kd
Measured Result: 4.83 µM

Using the record for `CN(C)CCOc1ccc(-c2ccccc2)c2ccccc12` , state its measured Kd.
77.5 µM

Output measured Kd for this item: `CN1CCN(CCOc2cc(C(=O)c3ccccc3)cc3ccccc23)CC1`
34 µM

Measured values drawn from paper PMC10609163 for this set.
